# MEASURED_TARGET: hTas1R2:S40T/I67S/D142E+hTas1R3 (Homo sapiens, UniProt Q8TE23, D142E/I67S/S40T)
# Sequence (Q8TE23 20-839 S40T/I67S/D142E): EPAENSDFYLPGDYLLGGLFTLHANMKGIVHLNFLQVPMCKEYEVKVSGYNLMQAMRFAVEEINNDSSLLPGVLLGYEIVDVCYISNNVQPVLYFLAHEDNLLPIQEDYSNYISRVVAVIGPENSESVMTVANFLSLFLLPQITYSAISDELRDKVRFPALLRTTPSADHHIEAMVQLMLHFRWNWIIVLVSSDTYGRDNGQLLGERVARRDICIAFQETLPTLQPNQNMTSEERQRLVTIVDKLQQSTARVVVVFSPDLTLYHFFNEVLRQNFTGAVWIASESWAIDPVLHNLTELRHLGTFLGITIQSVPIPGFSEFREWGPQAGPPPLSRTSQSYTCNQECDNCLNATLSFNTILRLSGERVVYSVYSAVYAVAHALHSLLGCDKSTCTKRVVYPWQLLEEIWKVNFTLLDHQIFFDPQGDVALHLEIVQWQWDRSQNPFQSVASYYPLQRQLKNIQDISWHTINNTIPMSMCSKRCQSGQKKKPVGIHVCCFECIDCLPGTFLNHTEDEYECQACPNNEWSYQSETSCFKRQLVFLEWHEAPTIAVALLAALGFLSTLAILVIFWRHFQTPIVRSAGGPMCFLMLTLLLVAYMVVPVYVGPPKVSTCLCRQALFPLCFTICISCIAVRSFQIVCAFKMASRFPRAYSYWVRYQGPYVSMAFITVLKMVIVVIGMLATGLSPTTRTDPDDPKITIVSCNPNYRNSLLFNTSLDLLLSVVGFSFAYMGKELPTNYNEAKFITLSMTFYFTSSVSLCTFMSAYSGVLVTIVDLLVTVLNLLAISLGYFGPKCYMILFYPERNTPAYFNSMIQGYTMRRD
# Sequence (Q7RTX0 21-852 partner): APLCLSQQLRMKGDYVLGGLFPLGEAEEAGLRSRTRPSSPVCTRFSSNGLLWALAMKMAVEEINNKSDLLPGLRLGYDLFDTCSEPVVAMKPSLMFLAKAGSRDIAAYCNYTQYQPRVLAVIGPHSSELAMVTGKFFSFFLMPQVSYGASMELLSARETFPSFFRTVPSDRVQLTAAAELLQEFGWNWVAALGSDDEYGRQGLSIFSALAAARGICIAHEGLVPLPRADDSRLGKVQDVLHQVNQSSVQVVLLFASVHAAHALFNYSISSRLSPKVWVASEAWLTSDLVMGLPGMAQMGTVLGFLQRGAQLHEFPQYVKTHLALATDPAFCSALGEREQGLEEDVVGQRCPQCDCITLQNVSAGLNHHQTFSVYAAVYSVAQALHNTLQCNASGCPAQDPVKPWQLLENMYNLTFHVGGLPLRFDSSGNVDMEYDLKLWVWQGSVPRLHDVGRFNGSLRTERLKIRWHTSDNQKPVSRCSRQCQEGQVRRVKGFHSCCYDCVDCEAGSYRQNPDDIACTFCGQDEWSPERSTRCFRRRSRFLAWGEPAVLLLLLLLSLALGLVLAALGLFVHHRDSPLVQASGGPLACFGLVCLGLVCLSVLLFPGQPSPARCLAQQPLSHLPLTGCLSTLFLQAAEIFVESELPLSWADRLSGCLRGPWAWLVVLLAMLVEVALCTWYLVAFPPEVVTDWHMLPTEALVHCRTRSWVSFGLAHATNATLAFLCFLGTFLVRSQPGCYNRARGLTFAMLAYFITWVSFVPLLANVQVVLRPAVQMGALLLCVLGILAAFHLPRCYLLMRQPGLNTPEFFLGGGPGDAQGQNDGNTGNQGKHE
# MEASUREMENT_DESCRIPTION: Ca2+ mobilization, mutated human receptor
# MEASUREMENT_CONTEXT: HEK293E cells with Gα16-gust44; dose-response, calcium mobilization
pEC50: −log10 of the molar value.
PARAMETER: pEC50

INSERT INTO assay_data (molecule, parameter, recorded_result) VALUES
  ('COC(=O)[C@H](Cc1ccccc1)NC(=O)[C@H](CC(=O)O)NCCC(C)(C)C [neotame]', 'pEC50', 1.92);

---

# MEASURED_TARGET: smTas1R2:S67I/E142D+smTas1R3 (Saimiri sciureus, UniProt A3QP08, E142D/S67I)
# Sequence (A3QP08 20-834 S67I/E142D): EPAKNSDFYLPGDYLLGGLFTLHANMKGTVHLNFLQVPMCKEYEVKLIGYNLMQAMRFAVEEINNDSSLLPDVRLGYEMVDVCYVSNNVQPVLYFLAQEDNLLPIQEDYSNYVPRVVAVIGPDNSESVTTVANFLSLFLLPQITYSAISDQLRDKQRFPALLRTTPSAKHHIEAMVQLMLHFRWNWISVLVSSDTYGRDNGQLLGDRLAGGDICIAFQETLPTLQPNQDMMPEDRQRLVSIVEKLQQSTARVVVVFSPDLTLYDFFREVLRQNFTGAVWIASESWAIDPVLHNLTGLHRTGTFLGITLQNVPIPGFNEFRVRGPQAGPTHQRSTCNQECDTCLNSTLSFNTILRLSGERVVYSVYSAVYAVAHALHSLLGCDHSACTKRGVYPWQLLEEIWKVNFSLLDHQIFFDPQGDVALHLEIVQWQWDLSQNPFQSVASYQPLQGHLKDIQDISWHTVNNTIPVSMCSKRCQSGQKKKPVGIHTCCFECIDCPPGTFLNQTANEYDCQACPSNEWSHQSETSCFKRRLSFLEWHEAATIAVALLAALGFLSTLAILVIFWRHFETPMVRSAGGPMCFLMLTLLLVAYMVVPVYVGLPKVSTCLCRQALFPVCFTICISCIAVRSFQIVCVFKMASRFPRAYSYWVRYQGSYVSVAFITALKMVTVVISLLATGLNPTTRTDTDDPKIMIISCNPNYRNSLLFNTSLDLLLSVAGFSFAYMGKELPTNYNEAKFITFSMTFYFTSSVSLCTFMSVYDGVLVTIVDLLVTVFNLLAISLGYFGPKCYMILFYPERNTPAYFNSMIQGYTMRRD
# MEASUREMENT_DESCRIPTION: Ca2+ mobilization, mutated squirrel monkey receptor
# Type: cell-based, squirrel monkey (Saimiri sciureus)
pEC50: −log10 of the molar value. Peptide text beside a SMILES is read from it.
PARAMETER: pEC50

INSERT INTO measurements (compound, parameter, recorded_result) VALUES
  ('COC(=O)[C@H](Cc1ccccc1)NC(=O)[C@@H](N)CC(=O)O [aspartame] (H-Asp-Phe-OMe)', 'pEC50', 2.25);
